src = patent US20040171073A1

ASSAYED_TARGET: murine SR-BI (Mus musculus, UniProt Q61009)
Construct: expressed in transfected cells; host or cells: ldlA-7 (LDL receptor deficient Chinese hamster ovary cells)
Sequence (Q61009 whole entry): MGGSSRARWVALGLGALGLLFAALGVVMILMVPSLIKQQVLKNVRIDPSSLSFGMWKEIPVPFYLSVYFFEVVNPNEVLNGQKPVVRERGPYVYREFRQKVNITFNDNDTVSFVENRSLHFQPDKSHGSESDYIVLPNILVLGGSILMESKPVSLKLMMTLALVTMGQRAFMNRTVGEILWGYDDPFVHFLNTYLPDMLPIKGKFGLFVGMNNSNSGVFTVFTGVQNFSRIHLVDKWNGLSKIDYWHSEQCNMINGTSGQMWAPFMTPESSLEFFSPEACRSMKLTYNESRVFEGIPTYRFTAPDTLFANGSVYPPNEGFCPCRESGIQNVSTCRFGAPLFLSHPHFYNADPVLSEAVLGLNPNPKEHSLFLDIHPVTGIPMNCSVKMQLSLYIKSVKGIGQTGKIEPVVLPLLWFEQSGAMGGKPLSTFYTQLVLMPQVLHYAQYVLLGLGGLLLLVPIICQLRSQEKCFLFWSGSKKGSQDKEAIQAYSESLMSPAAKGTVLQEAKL
METHOD_SUMMARY: Uptake of DiI from DiI-HDL by ldlA[mSR-BI] cells (high throughput screen and concentration dependence)
Format: cell-based
TEST_PARAMETERS: Test 2
Values of ENDOHDL Test 2 strictly less than 0.7 map to label 1, and values of at least 0.7 map to label 0.

SMILES_REPR | CLASS_ASSIGNMENT
COc1cc2c(-c3ccccc3)c(C)oc2cc1/C=N/NC(N)=S | label 1
O=C(Cl)CCNC(=O)c1ccccc1 | label 0
O=[N+]([O-])c1ccc(N/N=C(/CS(=O)(=O)c2ccccc2)c2ccccc2)c([N+](=O)[O-])c1 | label 0
O=C(O)c1cc(C(=O)O)nc(C(=O)O)c1 | label 0
